Entries and their activity
target: Phenylethanolamine N-methyltransferase (Homo sapiens) (UniProt P11086); assay: Confirmatory Screen for Target Class Profiling of Small Molecule Inhibitors of Methyltransferases (AID 1745852); details: MTase-Glo luminescence, SAH detection, recombinant enzyme; measured here: PNMT max response; stronger effect = lower value
Sequence (P11086 whole entry, looked up): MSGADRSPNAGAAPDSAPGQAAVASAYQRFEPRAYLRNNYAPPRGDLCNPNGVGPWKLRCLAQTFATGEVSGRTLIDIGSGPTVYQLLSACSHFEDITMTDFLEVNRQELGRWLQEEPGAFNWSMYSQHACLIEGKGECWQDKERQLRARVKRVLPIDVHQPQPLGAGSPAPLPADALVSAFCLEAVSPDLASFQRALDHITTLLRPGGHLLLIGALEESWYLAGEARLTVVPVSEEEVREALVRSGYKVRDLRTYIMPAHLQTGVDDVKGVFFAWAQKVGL
The response must be a number in % with no trailing unit.

A selection of reference data follows.
[[record]]
smiles_data = "COc1ccc(NC(=O)/C=C/c2ccc(Cl)cc2)cc1"
study_target = "Phenylethanolamine N-methyltransferase (Homo sapiens) (UniProt P11086)"
quantity = "activity"
reported = -10.5

[[record]]
smiles_data = "COc1ccc(/C=C2\\COc3ccc(C)cc3C2=O)cc1O"
study_target = "Phenylethanolamine N-methyltransferase (Homo sapiens) (UniProt P11086)"
quantity = "activity"
reported = 4.48


Identify measured activity corresponding to O=C(O)CC[C@@H](C(=O)O)N1C(=O)c2ccccc2C1=O
-4.01

Identify measured activity corresponding to COc1ccc(Br)cc1S(=O)(=O)NC(=O)/C=C/c1ccccc1Cc1ccc2ccccc2c1
0.509
